Data credit: patent US20090018134A1

Entries annotated with measured IC50
# TARGET_SYSTEM: mTOR (Homo sapiens)
# Construct: FLAG; made in house
# Sequence (P42345 1362-2549): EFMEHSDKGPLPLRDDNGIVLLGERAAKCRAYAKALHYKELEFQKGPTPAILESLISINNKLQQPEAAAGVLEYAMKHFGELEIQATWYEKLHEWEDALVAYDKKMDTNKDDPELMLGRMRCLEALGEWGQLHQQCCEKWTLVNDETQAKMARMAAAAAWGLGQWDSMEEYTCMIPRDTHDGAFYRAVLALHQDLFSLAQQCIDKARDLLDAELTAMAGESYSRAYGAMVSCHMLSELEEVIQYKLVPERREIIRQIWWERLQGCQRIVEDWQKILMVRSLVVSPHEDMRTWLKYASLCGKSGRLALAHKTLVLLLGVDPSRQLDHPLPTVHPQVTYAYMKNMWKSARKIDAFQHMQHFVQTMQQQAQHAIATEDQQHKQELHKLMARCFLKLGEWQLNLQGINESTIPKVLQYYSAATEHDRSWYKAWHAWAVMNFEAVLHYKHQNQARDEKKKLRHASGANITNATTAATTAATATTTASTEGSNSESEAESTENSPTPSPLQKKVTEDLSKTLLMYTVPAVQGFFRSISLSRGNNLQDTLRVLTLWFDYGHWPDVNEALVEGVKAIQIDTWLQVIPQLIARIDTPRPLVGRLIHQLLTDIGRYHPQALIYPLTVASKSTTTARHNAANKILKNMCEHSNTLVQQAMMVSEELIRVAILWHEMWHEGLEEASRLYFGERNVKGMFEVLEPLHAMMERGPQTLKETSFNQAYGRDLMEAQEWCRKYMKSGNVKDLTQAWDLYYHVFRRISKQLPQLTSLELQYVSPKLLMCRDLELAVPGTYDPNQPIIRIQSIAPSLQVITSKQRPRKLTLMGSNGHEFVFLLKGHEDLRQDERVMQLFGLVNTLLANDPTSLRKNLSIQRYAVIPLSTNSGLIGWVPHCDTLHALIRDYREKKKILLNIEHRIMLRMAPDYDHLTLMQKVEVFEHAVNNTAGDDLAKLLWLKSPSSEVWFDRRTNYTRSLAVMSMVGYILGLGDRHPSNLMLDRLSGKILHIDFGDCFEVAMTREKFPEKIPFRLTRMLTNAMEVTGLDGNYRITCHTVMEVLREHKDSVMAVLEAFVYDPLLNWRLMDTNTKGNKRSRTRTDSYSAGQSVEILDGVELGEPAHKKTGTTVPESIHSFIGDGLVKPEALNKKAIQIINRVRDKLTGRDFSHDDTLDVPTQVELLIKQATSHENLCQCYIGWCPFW
# ASSAY_REMARKS: In Vitro mTOR Kinase Assay (Echo), Test (a)(ii)
# Format: biochemical
# EXPERIMENTAL_CONDITIONS: table of enzyme assay Test (a)(ii); read-out: Test (a)(ii) IC50
Entry rule: numbers only, all in nM.

Guide cases for IC50, answers given:
INSERT INTO measurements (molecule, unit_annotation, experimental_value) VALUES
  ('CCNC(=O)Nc1ccc(-c2nc(N3CCOC[C@@H]3C)cc(C3(S(=O)(=O)CCCOC(F)F)CC3)n2)cc1 [Example 96c]', 'nM', 27.2),
  ('C[C@H]1COCCN1c1cc(C2(S(=O)(=O)C(C)(C)C)CC2)nc(-c2ccc(NC(=O)NCCCO)cc2)n1 [Example 18l]', 'nM', 10.2),
  ('CNC(=O)Nc1ccc(-c2nc(N3CCOCC3)cc(C3(C(=O)NC4CC4)CC3)n2)cc1 [Example 32b]', 'nM', 8.29),
  ('CNC(=S)Nc1ccc(-c2nc(N3CCOC[C@@H]3C)cc(C3(S(=O)(=O)c4ccc(F)cc4)CC3)n2)cc1 [Example 37s]', 'nM', 7.56),
  ('C[C@H]1COCCN1c1cc(C2(S(=O)(=O)c3cncc(F)c3)CC2)nc(-c2ccc(NC(=O)NCCO)cc2)n1 [Example 17]', 'nM', 1.16),
  ('CCNC(=O)Nc1ccc(-c2nc(N3CCOC[C@@H]3C)cc(C3(S(=O)(=O)CCCO)CCOCC3)n2)cc1 [Example 36cb]', 'nM', 163);

Continue with the molecule presented below.
I would be grateful if you could share the reported IC50 for CCCNC(=S)Nc1ccc(-c2nc(N3CCOC[C@@H]3C)cc(C3(S(=O)(=O)CCCO)CC3)n2)cc1 [Example 37l] .
32

====

# TARGET_SYSTEM: mTOR (Homo sapiens)
# Construct: FLAG; made in house
# ASSAY_REMARKS: In Vitro mTOR Kinase Assay (Echo), Test (a)(ii)
# Assay type: biochemical
# EXPERIMENTAL_CONDITIONS: table of enzyme assay Test (a)(ii); read-out: Test (a)(ii) IC50
ENDPOINT_NAME: pIC50
Conceptually, pIC50 converts a concentration in mol/L into minus its log10.

Sample records with pIC50:
INSERT INTO measurements (compound, target_system, experimental_value) VALUES
  ('CC(C)NC(=O)Nc1ccc(-c2nc(N3CCOC[C@@H]3C)cc(C3(S(=O)(=O)C(C)(C)C)CC3)n2)cc1 [Example 18d]', 'mTOR (Homo sapiens)', 7.82),
  ('CCNC(=O)Nc1ccc(-c2nc(N3CCOCC3)cc(C3(S(=O)(=O)CCO)CC3)n2)cc1 [Example 47b]', 'mTOR (Homo sapiens)', 7.83),
  ('Cc1csc(S(=O)(=O)C2(c3cc(N4CCOC[C@@H]4C)nc(-c4ccc(NC(=S)NC5CC5)cc4)n3)CC2)n1 [Example 37q]', 'mTOR (Homo sapiens)', 8.53);

Query (compound): C[C@H]1COC[C@H](C)N1c1cc(C2(S(=O)(=O)c3ccccc3)CC2)nc(-c2ccc(NC(=O)NC3CC3)cc2)n1 [Example 93] ; field requested: pIC50
8.30
